Each recorded value in this set is attributed to patent US7244727B2.

endpoint name: melting point

Previously resolved entries follow.
1. CC1(C)Oc2ncnc(N)c2N=C1c1ccc(Cl)cc1
210 to 211 °C
2. CC1(C)Oc2ncnc(N)c2N=C1c1ccc([C@H]2CC[C@H](CC(=O)N3CCC(O)C3)CC2)cc1 (stereo partly shown)
237 to 239 °C

With those in mind, consider the next molecule.
Q: Give the measured melting point of CC(C)NC(=O)CC[C@H]1CC[C@H](c2ccc(C3=Nc4c(N)ncnc4OC3(C)C)cc2)CC1 .
A: 206 to 208 °C

* * *

endpoint name: melting point

Previously resolved entries follow.
1. Cc1nc(N)c2c(n1)OCC(c1ccc(Br)cc1)N2 (centres unmarked)
232 to 233 °C
2. CC1(C)Oc2ncnc(N)c2N=C1c1ccc(Br)cc1
201 to 203 °C
3. CC1(C)Oc2ncnc(N)c2N=C1c1ccc(-c2ccncc2)cc1
> 250 °C
4. Cc1csc(NCC[C@H]2CC[C@H](c3ccc(C4=Nc5c(N)ncnc5OC4(C)C)cc3)CC2)n1
> 250 °C
5. CCCN(C)C(=O)CC[C@H]1CC[C@H](c2ccc(C3=Nc4c(N)ncnc4OC3(C)C)cc2)CC1
210 to 212 °C

Q: Give the measured melting point of Cc1nc(N)c2c(n1)OC(C)(C)C(c1ccc([C@H]3CC[C@H](CCc4noc(C(F)(F)F)n4)CC3)cc1)=N2 .
A: 198 to 200 °C

Q: Give the measured melting point of CC1(C)Oc2ncnc(N)c2N=C1c1ccc2c(c1)CC(C(=O)O)C2 (centres unmarked) .
A: > 250 °C

Q: Give the measured melting point of Cc1nc(N)c2c(n1)OC(C)(C)C(c1ccc([C@H]3CC[C@H](CNC(=O)CO)CC3)c(F)c1)=N2 .
A: 212 to 214 °C
